Tested on: strains of Bacteroides fragilis
Test: MIC against anaerobes, agar dilution (CLSI), clinical isolates
Type: cell-based
Details: Bacteroides fragilis strain 5
Kindly supply the reported MIC values for the records listed here.

Observe how each entry below is paired with its result.
Cc1ccc2ncc(=O)n(CCN[C@H]3CC[C@H]4[C@@H](C3)OC(=O)N4c3ccc4c(n3)NC(=O)CO4)c2c1 ... 1 to 4 µg/mL
COc1ccc2ncc(=O)n(CCN[C@@H]3CC[C@@H]4[C@@H](C3)OC(=O)N4c3ccc4c(n3)NC(=O)CO4)c2c1 ... < 1 µg/mL
Cc1ncc([N+](=O)[O-])n1CCO [MTZ, metronidazole, reference compound] ... < 1 µg/mL

Could you now consider this next compound?
Per the record, CN[C@H](CC(C)C)C(=O)N[C@H]1C(=O)N[C@@H](CC(N)=O)C(=O)N[C@H]2C(=O)N[C@H]3C(=O)N[C@H](C(=O)N[C@H](C(=O)O)c4cc(O)cc(O)c4-c4cc3ccc4O)[C@H](O)c3ccc(c(Cl)c3)Oc3cc2cc(c3O[C@@H]2O[C@H](CO)[C@@H](O)[C@H](O)[C@H]2O[C@H]2C[C@](C)(N)[C@H](O)[C@H](C)O2)Oc2ccc(cc2Cl)[C@H]1O [VAN, vancomycin, reference compound] has MIC of 16 to 64 µg/mL

----------
Tested on: Enterobacter cloacae NCTC 13406
Assay: MIC, broth microdilution (CLSI) versus planktonic bacteria
Assay type: cell-based
Settings: NCTC13406; Enterobacter cloacae NCTC 13406; 16-20 h; mode of three independent experiments; read-out: MIC, Ecl NCTC 13406
Kindly supply the reported MIC values for the records listed here.

Observe how each entry below is paired with its result.
N#Cc1cccc(-c2cccc(CN[C@H]3CC[C@H]4[C@H](C3)OC(=O)N4c3ccc4c(n3)NC(=O)CO4)c2)n1 [Compound 57] ... 1 to 10 µg/mL
COc1ccc2ccc(=O)n(CCN[C@@H]3CC[C@@H]4[C@@H](C3)OC(=O)N4c3cc4c(nn3)OCCO4)c2n1 [Compound 49] ... > 100 µg/mL
O=C1COc2ccc(N3C(=O)O[C@@H]4C[C@@H](NCCn5c(=O)cnc6cc(F)c(F)cc65)CC[C@@H]43)nc2N1 [Compound 22] ... < 1 µg/mL
O=C1COc2ccc(N3C(=O)O[C@@H]4C[C@@H](NCCn5c(=O)cnc6ccc(F)cc65)CC[C@@H]43)nc2N1 [Compound 26] ... 1 to 10 µg/mL
N#Cc1ccc2ncc(=O)n(CCN[C@H]3CC[C@H]4[C@@H](C3)OC(=O)N4c3ccc4c(n3)NC(=O)CO4)c2c1 [Compound 31] ... < 1 µg/mL
COc1ncc2ccc(=O)n(CCN[C@@H]3CC[C@@H]4[C@@H](C3)OC(=O)N4c3ccc4c(n3)NC(=O)CO4)c2n1 [Compound 2] ... < 1 µg/mL
N#Cc1ccc2ccc(=O)n(CCN[C@@H]3CC[C@@H]4[C@@H](C3)OC(=O)N4c3ncc4c(n3)NC(=O)CO4)c2c1 [Compound 37] ... < 1 µg/mL
O=C1COc2ccc(N3C(=O)O[C@H]4C[C@@H](NCCn5c(=O)ccc6ccc(OCCN7CCOCC7)cc65)CC[C@@H]43)nc2N1 [Compound 97] ... 10 to 100 µg/mL
N#Cc1cnc2ccc(=O)n(CCN[C@H]3CC[C@H]4[C@H](C3)OC(=O)N4c3ccc4c(n3)NC(=O)CO4)c2c1 [Compound 55] ... < 1 µg/mL
N#Cc1ccc2ccc(=O)n(CCCN[C@H]3CC[C@H]4[C@H](C3)OC(=O)N4c3ccc4c(n3)NC(=O)CO4)c2c1 [Compound 60] ... < 1 µg/mL

List MIC for every entry below, keeping the order given.
1. C=CCOc1ccc2ccc(=O)n(CCN[C@H]3CC[C@H]4[C@H](C3)OC(=O)N4c3ccc4c(n3)NC(=O)CO4)c2c1 [Compound 89]
2. COc1ccc2ccc(=O)n(CCCN[C@@H]3CC[C@@H]4[C@@H](C3)OC(=O)N4c3ccc4c(n3)NC(=O)CO4)c2n1 [Compound 76]
3. O=C1COc2cnc(N3C(=O)O[C@@H]4C[C@@H](NCCn5c(=O)cnc6cc(F)c(F)cc65)CC[C@@H]43)nc2N1 [Compound 65]

1: 1 to 10 µg/mL; 2: < 1 µg/mL; 3: 1 to 10 µg/mL

Values were extracted from patent US10487093B2.
